Test system: Plasmodium falciparum Sir2 (PF13_0152, Sir2A)
Test: pfSir2 binders on small-molecule microarrays, primary screen, biochemical, small-molecule microarray, 635 nm fluorescence (AID 1098);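 note: score merges spot fluorescence intensity with its signal-to-noise ratio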
Conditions: small-molecule microarray binding, fluorescence 635 nm; higher = more signal
Reported composite z-score values for the following compounds.

Worked examples, 3 compounds total:
The compound listed as CO[C@@H]1COC(=O)[C@H](C)NC(=O)CC=C[C@@H](C)[C@H](NS(=O)(=O)c2ccc(C)cc2)COC(=O)CC=C[C@@H]1C has a reported composite z-score of -0.876

The compound listed as CC(C)[Si]1(C(C)C)OCc2cc(C3CC3)nc(-c3ccccc3)c21 has a reported composite z-score of 0.0305

The compound listed as CO[C@@H]1COC(=O)CC=C[C@H](C)COC(=O)[C@H](Cc2ccccc2)NC(=O)CC=C[C@H]1C has a reported composite z-score of 0.534

Others:
The compound listed as COCCOC(=O)N1C(=O)[C@@]2(c3cc(C#CCCO)ccc31)[C@H](c1ccc(O)cc1)N1[C@H](c3ccccc3)[C@H](c3ccccc3)OC(=O)[C@H]1[C@@H]2C(=O)Nc1nc2ccccc2s1 has a reported composite z-score of 0.762

Values compiled from PubChem BioAssay.
